This collection of values is drawn from patent US6133291A.

Listed next: entries and their corresponding log10(Kb).
# experimental_target: H3 receptors (Cavia porcellus, UniProt Q9JI35)
# Sequence (Q9JI35 whole entry): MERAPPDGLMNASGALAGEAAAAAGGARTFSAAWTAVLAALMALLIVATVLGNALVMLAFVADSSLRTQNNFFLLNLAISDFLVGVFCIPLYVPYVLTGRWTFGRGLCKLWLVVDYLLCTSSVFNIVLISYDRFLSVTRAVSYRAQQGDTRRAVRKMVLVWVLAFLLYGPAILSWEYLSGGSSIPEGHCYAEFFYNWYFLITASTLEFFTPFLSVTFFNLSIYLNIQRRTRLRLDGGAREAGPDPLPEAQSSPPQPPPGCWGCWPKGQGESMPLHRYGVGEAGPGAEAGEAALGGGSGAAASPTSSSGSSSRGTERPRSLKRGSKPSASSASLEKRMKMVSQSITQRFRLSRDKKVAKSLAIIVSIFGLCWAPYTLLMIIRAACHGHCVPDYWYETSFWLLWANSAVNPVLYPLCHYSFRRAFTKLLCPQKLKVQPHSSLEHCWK
# test_method_notes: pA2 at H3 receptor (guinea pig neuronal ileum contraction assay)
# Format: biochemical
# measurement_context: HCl salt; pA2=-logEC50 as defined by J. Hey; read-out: pA2 (converted)
Form field - Quantity: Kb; Unit: nM; Scale: log10

Examples with their reported log10(Kb) follow.
CCCCOc1ccc(NC(=O)C2CCN(CCCc3c[nH]cn3)CC2)cc1 [compound 14]; 0.00
FC(F)(F)Oc1ccc(CNC2CCN(CCCCc3c[nH]cn3)CC2)cc1 [compound 21]; 0.90
O=C(Nc1ccc(Cl)c(Cl)c1)C1CCN(CCCCc2c[nH]cn2)CC1 [No. 8]; 2.20

Query :: Recall the recorded log10(Kb) for Fc1ccc(OCC2CCN(CCCCc3c[nH]cn3)CC2)cc1 [compound 34] with H3 receptors (Cavia porcellus, UniProt Q9JI35) and state it.
Result :: 1.30

Query :: Lookup CCCN(CC1CCN(CCCCc2c[nH]cn2)CC1)S(=O)(=O)c1ccc(OC(F)(F)F)cc1 [compound 6]
Result :: 2.50
